Inhibition (%) Dose 5 μM values by entry
- Tested on: lipid peroxidation (cerebral tissue homogenate)
- METHOD NOTES: Inhibition test of lipid peroxidation (malondialdehyde formation, thiobarbituric acid method)
- CONDITION: 5 μM, rat cerebral tissue supernatant, pH 7.4, 37° C., 30 minutes
READOUT: Inhibition (%) Dose 5 μM

> print(dat)
                                   compound                                       tgt  unit.of.measure  quantitative.readout
1  Nc1n[nH]c(N(CCSSCCN(Cc2ccc(Br)cc2)c2nc(N)n[nH]2)Cc2ccc(Br)cc2)n1 [Compound 14]  lipid peroxidation (cerebral tissue homogenate)                %                  49.2
2  Nc1n[nH]c(N(CCSSCCN(Cc2cccc(Br)c2)c2nc(N)n[nH]2)Cc2cccc(Br)c2)n1 [Compound 13]  lipid peroxidation (cerebral tissue homogenate)                %                  51.1
3  Nc1n[nH]c(N(CCSSCCN(Cc2ccc3ccccc3c2)c2nc(N)n[nH]2)Cc2ccc3ccccc3c2)n1 [Compound 39]  lipid peroxidation (cerebral tissue homogenate)                %                  56.3
4  Nc1nc(N(CCSSCCN(Cc2ccccc2)c2n[nH]c(N)n2)Cc2ccccc2)n[nH]1 [Compound 7]  lipid peroxidation (cerebral tissue homogenate)                %                  31.4

* * *

Inhibition (%) Dose 5 μM values by entry
- System: lipid peroxidation (cerebral tissue homogenate)
- METHOD NOTES: Inhibition test of lipid peroxidation (malondialdehyde formation, thiobarbituric acid method)
- CONDITION: 5 μM, rat cerebral tissue supernatant, pH 7.4, 37° C., 30 minutes
READOUT: Inhibition (%) Dose 5 μM

> print(dat)
                                 mol.smiles                   readout  result
1  Cc1ccc(CN(CCSSCCN(Cc2ccc(C)c([N+](=O)[O-])c2)c2nc(N)n[nH]2)c2nc(N)n[nH]2)cc1[N+](=O)[O-]  Inhibition (%) Dose 5 μM   31.4%
2  Cc1cc(C)c(CN(CCSSCCN(Cc2c(C)cc(C)cc2C)c2nc(N)n[nH]2)c2nc(N)n[nH]2)c(C)c1  Inhibition (%) Dose 5 μM   85.8%
3  Cc1ccc(CN(CCSSCCN(Cc2ccc(C)cc2)c2nc(N)n[nH]2)c2nc(N)n[nH]2)cc1  Inhibition (%) Dose 5 μM   51.8%
4  Nc1n[nH]c(N(CCSSCCN(Cc2cccc(C(F)(F)F)c2)c2nc(N)n[nH]2)Cc2cccc(C(F)(F)F)c2)n1  Inhibition (%) Dose 5 μM   36.6%
5  Cc1cccc(CN(CCSSCCN(Cc2cccc(C)c2)c2nc(N)n[nH]2)c2nc(N)n[nH]2)c1  Inhibition (%) Dose 5 μM   48.1%
6  CC(C)(C)c1ccc(CN(CCSSCCN(Cc2ccc(C(C)(C)C)cc2)c2nc(N)n[nH]2)c2nc(N)n[nH]2)cc1  Inhibition (%) Dose 5 μM   35.6%
7  Cc1ccc(C)c(CN(CCSSCCN(Cc2cc(C)ccc2C)c2nc(N)n[nH]2)c2nc(N)n[nH]2)c1  Inhibition (%) Dose 5 μM   70.8%
